- Assay Remarks: solubility of CBD in water and other aqueous solvents with Captisol (SAE-CD) and/or added polymers, surfactants, pH
- Assay type: physicochemical
- Condition Parameters: aqueous solvent, aqueous with cosolvent or surfactant or cyclodextrin, Captisol 40%, 1% HPMC
Readout Label: solubility (µg/mL)

> print(dat)
                                   compound  readout.label  quantitative.result
1  C=C(C)[C@@H]1CCC(C)=C[C@H]1c1c(O)cc(CCCCC)cc1O [CBD, cannabidiol]     solubility                 3450

----------
- Assay Remarks: solubility of CBD in water and other aqueous solvents with Captisol (SAE-CD) and/or added polymers, surfactants, pH
- Assay type: physicochemical
- Condition Parameters: aqueous solvent, aqueous with cosolvent or surfactant or cyclodextrin, Captisol 20%, 2% Tween 80
- Description: In some embodiments the addition of water soluble polymers and/or surfactants increases the solubility of the CBD/Captisol mixture. Therefore, in some embodiments the formulations may include the addition of these or other ingredients as solubility enhancers.
Readout Label: solubility (µg/mL)

> print(dat)
                               query.smiles  unit.string  quantitative.result
1  C=C(C)[C@@H]1CCC(C)=C[C@H]1c1c(O)cc(CCCCC)cc1O        µg/mL                  720
